Origin of measurements: patent EP0815110B1

biological target: Succinat-Dehydrogenase (Rattus norvegicus, UniProt P21913+Q641Z9+Q6PCT8+Q920L2); construct: Hemmung des Komplexes I bzw; II der mitochondrialen Atmungskette in Rattenhirn-Homogenaten; from tissue; host or cells: rat brain homogenate; experiment: Succinate dehydrogenase (complex II) activity; format: biochemical, Ratte; settings: bei 500 µmol; Rattenhirn-Homogenate; read-out: Komplex-II-Hemmung Inhibierungsrate (in %) bei gegebener Konzentration (in µmol)
Sequence (Q920L2 35-656): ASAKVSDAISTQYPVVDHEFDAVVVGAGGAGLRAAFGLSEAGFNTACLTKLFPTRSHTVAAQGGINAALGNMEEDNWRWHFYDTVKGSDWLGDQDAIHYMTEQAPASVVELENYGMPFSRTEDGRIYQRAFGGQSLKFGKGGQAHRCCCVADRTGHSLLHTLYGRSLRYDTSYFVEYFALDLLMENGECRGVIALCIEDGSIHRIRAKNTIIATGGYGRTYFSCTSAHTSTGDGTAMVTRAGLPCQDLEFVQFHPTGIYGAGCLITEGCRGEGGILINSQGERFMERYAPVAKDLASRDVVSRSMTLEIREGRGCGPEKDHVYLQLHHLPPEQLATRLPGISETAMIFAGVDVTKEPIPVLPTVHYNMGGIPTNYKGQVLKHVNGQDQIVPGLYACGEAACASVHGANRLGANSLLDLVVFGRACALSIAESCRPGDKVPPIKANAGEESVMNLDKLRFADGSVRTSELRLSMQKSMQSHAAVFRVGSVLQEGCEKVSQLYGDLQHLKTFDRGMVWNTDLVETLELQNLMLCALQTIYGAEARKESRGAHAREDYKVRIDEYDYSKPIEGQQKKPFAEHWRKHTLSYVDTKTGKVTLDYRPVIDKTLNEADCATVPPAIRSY
Sequence (P21913 31-282): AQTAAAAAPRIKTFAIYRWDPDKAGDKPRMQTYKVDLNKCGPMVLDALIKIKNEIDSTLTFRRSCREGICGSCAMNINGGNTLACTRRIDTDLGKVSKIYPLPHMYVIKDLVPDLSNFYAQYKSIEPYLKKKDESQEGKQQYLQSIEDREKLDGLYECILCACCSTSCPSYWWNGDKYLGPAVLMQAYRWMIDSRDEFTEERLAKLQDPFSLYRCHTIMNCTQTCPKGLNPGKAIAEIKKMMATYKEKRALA
Sequence (Q641Z9 1-169): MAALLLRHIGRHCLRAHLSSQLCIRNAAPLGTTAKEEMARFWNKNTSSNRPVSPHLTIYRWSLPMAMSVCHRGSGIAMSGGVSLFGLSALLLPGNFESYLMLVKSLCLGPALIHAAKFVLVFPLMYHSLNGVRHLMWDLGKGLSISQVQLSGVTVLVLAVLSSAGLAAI
Sequence (Q6PCT8 57-159): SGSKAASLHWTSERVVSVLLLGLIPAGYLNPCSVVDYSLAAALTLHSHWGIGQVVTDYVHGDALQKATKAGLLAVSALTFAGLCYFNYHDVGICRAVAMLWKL
Known inhibition at 500 µM of a selection of compounds
quantity_kind: inhibition at 500 µM (%)

- CCN1CCc2c([nH]c3ccccc23)C1C(Cl)(Cl)Cl (racemic): 75
- COC(=O)[C@@H]1Cc2c([nH]c3ccccc23)C(C(Cl)(Cl)Cl)N1 (some centres unmarked): 75
- COC(=O)C1Cc2c([nH]c3ccccc23)C(C(Cl)(Cl)Cl)N1Cc1ccccc1 (centres unmarked): 60
- ClC(Cl)(Cl)C1NCCc2c1[nH]c1ccccc21 (racemic): 30

---

Each item that follows carries a reported inhibition at 500 µM.
target: NADH-Ubichinon-1-Reduktase (Rattus norvegicus, UniProt A6K8N6+P03889+Q641Y2); experiment: NADH-ubiquinone-1 reductase (complex I) test, spectrophotometric at 340 nm; type: biochemical, Ratte; conditions: bei 500 µmol; Rattenhirn-Homogenate; read-out: Komplex-I-Hemmung Inhibierungsrate (in %) bei gegebener Konzentration (in µmol)
Sequence (P03889 whole entry): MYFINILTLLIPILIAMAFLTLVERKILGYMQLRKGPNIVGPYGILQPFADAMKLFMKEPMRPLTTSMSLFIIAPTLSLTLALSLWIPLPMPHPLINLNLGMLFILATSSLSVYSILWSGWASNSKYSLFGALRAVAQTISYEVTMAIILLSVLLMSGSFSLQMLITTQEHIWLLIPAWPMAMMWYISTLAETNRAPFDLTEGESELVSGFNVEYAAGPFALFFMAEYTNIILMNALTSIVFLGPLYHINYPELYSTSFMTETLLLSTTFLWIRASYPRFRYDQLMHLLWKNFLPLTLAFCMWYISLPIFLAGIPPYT
Sequence (Q641Y2 34-463): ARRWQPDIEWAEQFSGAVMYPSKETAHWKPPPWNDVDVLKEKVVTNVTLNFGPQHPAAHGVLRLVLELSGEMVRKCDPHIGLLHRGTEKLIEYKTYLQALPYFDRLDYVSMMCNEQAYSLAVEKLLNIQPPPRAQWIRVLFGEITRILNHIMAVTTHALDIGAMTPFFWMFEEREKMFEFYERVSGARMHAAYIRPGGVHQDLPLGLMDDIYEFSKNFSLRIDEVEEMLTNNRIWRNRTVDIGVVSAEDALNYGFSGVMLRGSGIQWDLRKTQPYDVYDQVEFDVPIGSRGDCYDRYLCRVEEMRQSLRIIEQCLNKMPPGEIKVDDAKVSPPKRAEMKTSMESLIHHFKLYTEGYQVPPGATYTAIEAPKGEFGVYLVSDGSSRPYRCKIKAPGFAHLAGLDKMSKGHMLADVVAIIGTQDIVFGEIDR
Sequence (A6K8N6 entry or part of it): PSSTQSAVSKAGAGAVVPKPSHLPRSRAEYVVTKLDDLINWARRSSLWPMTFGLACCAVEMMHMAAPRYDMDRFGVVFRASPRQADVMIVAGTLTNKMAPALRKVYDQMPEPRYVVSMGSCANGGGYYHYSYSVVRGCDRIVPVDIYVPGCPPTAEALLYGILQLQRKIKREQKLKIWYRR
quantity_kind: inhibition at 500 µM

* O=CN1CCc2c([nH]c3ccccc23)C1=C(Br)Br [N-Formyl-dibrommethylen-TaBro] | ≥ 100%
* O=CN1CCc2c([nH]c3ccccc23)C1C(Br)(Br)Br (racemic) [N-Formyl-TaBro] | 83%
* O=C(CCl)N1CCc2c([nH]c3ccccc23)C1C(Cl)(Cl)Cl (racemic) [N-Monochloracetyl-TaClo] | 95%
* CC(=O)N1CCc2c([nH]c3ccccc23)C1C(Cl)(Cl)Cl (racemic) [N-Acetyl-TaClo] | 20%
* O=C(N1CCc2c([nH]c3ccccc23)C1C(Cl)(Cl)Cl)C(Cl)(Cl)Cl (racemic) [N-Trichloracetyl-TaClo] | 90%
